assay: qHTS Assay for Foot and Mouth Disease Virus Antivirals: Primary Screen against the MLPCN compound library; conditions: FMDV antiviral cell-based qHTS; series mostly up to 57.9 µM; further: nearly all actives have a fitted effect of over 55% in size
About 2,000 (0.49%) of roughly 410,000 compounds were called active. Not shown: some 8% with an inconclusive outcome. The call rests on the fitted dose curve; tested in HEK293 reporter line. Many of the other results were omitted from the sample, so actives are more common in it than they were.
Select the correct class. Options are TRUE for active, FALSE for inactive and nothing else.

Input: For this molecule, state the assay outcome: COc1cccc(/C=N/NC(N)=S)c1OCc1cccc(Cl)c1
Output: TRUE

Input: For this molecule, state the assay outcome: O=C1c2ccccc2C(=O)C1c1ccnc2ccccc12
Output: TRUE

Input: For this molecule, state the assay outcome: CCCNNC(=O)C(O)(c1ccccc1)c1ccccc1
Output: FALSE

Input: For this molecule, state the assay outcome: O=C(Nc1ccccc1)Nc1ccc(O)c2ccccc12
Output: FALSE

Input: For this molecule, state the assay outcome: O=C(NCCC1=CCCCC1)c1ccc(F)cc1
Output: TRUE

Input: For this molecule, state the assay outcome: Cc1ccccc1CN1CCc2nc(N3CCN(c4ccccn4)CC3)ncc2C1
Output: TRUE

Input: For this molecule, state the assay outcome: CCOc1ccc(CN2CCNC(=O)C2CC(=O)NCCc2nc(C)c3c(n2)CCC3)cc1 (configuration not stated)
Output: FALSE

Input: For this molecule, state the assay outcome: CCOc1cc(/C=C2\C(=O)N(c3ccc(C(N)=O)cc3)N=C2C)ccc1OC(=O)c1cccs1
Output: FALSE

Input: For this molecule, state the assay outcome: CCn1c(SCC(=O)N/N=C/c2c[nH]c3ccccc23)nnc1-c1ccc(Cl)cc1
Output: FALSE

Input: For this molecule, state the assay outcome: COCCn1c(C)cc(C(=O)COC(=O)c2ccc[nH]c2=O)c1C
Output: FALSE

Input: For this molecule, state the assay outcome: COc1ccc(C2C3C=CCC(c4cccc(-c5ccc(C)cc5)c4)C3C(=O)N2Cc2ccccc2)cc1Cl (configuration not stated)
Output: TRUE

Input: For this molecule, state the assay outcome: Cc1ccccc1C(=O)N1CCC(C(=O)Nc2cc(C(F)(F)F)ccc2N2CCCC2)CC1
Output: FALSE

Input: For this molecule, state the assay outcome: O=C(CCCCCn1c(=O)[nH]c2ccccc2c1=O)N1CCN(Cc2ccc3c(c2)OCO3)CC1
Output: TRUE

Input: For this molecule, state the assay outcome: COc1ccc(NC(=O)c2cc(-c3ccccn3)nc3ccccc23)cc1S(=O)(=O)N(C)C
Output: FALSE

Input: For this molecule, state the assay outcome: Cc1ccccc1C(=O)N(Cc1nc(-c2ccc(Cl)cc2)no1)C(C)C
Output: FALSE

Input: For this molecule, state the assay outcome: COc1ccc(-c2cccc([C@H]3[C@@H]4C=CC[C@@H](C)[C@@H]4C(=O)N3Cc3ccccc3)c2)cc1
Output: FALSE

Input: For this molecule, state the assay outcome: CCCCCn1c(NC(=O)c2ccco2)c(C(=O)OCC)c2nc3ccccc3nc21
Output: FALSE

Input: For this molecule, state the assay outcome: N/C(=N\N=C\c1ccc2c(c1)OCO2)c1nonc1N
Output: TRUE

Input: For this molecule, state the assay outcome: CCCCCc1nnc(NC(=O)c2cccc(S(=O)(=O)N3CCOCC3)c2)s1
Output: FALSE

Input: For this molecule, state the assay outcome: COc1ccc(CC(=O)Nc2cccc(-c3csc(C)n3)c2)cc1
Output: TRUE

Input: For this molecule, state the assay outcome: Cc1ccccc1-c1nc(CN2CCC(C(=O)NC3CCN(Cc4ccccc4)CC3)CC2)c(C)o1
Output: FALSE

Input: For this molecule, state the assay outcome: Cc1nc(-c2cccc(NC(=O)c3ccc(Cl)c(S(=O)(=O)N4CCCC4)c3)c2)cs1
Output: FALSE

Source: PubChem BioAssay AID1347131
